Listing of recorded GI50 by entry.
tested on: BT-549 breast; assay: NCI tumour cell line growth inhibition, 48 h

compound	GI50
O=C(CC(Cl)=C(Cl)Cl)Nc1ccccc1	> 100000 nM
COc1cc(C2Cc3ncccc3-c3[nH]c(=O)c4cccnc4c32)cc(OC)c1OC (centres undefined)	633 nM
Cc1cc2nc3c4cc(O)ccc4n(CCN(C)C)c3nc2cc1C	2030 nM
CC(C)(C)c1ccc(S(=O)(=O)Oc2ccc3c4c(c(=O)oc3c2)CCCCC4)cc1	17700 nM

(Q) Data request, read-out GI50, for O=S(=O)(NCCCNc1nccc(-c2c(-c3ccc(O)cc3)nc3sccn23)n1)c1ccc(F)cc1
(A) 2360 nM

(Q) # input compound: O=c1c2c(=NCCN3CCCC3)cc3c(=O)n(CCCN4CCOCC4)c(=O)c4c(-c5ccc(CN6CCCC6)cc5)cc(c(O)n1CCCN1CCOCC1)c2c4-3 ; wanted: its GI50
(A) 116 nM

(Q) Can you share its GI50? I mean this compound: O=Nc1ccc(O)c(=O)cc1
(A) 2860 nM

(Q) If you can, please state the reported GI50 value of Cc1cc(S(=O)(=O)Nc2nc3ccccc3o2)c(SCc2ccccc2)cc1Cl .
(A) 30500 nM

(Q) // query GI50 value for entry COc1ccc(C2CC(c3cccc(Nc4ccnc5cc(Cl)ccc45)c3)=NN2C=O)cc1 (centres undefined)
(A) 486 nM

====

test system: MDA-MB-231 breast; test: NCI tumour cell line growth inhibition, 48 h
measurementType: GI50

// worked examples, GI50 included
compound	measurementType	result
O=Nc1ccc(O)c(=O)cc1	GI50	2.31 µM
COCC1CCCN1c1ccc(C=N/C(C#N)=C(\N)C#N)cc1 (stereo not drawn)	GI50	18.7 µM

(Q) I am curious: what GI50 value has been reported for CCC(C)[C@H]1O[C@]2(CC[C@@H]1C)C[C@@H]1C[C@@H](C/C=C(\C)[C@@H](OC3C[C@H](OC)C(O[C@H]4C[C@H](OC)[C@@H](O)[C@H](C)O4)[C@H](C)O3)[C@@H](C)/C=C/C=C3\CO[C@@H]4[C@H](O)C(C)=C[C@@H](C(=O)O1)[C@]34O)O2 (stereo partly drawn) ?
(A) 2.31 µM

(Q) Please give the measured GI50 for this compound: CC(=O)Nc1ccc2c(c1)C(c1ccccc1Cl)=Nc1c(n[nH]c1C)N2
(A) > 17.1 µM

(Q) Can you share its GI50? I mean this compound: Cc1cc(S(=O)(=O)Nc2nc3ccccc3o2)c(SCc2ccccc2)cc1Cl
(A) 35.9 µM

====

system: UACC-62 melanoma; assay: NCI tumour cell line growth inhibition, 48 h
measurementType: TGI

compound	result
CN(C)c1ccc(C=Nc2ccc(Oc3ccc(Cl)cc3)c(Cl)c2)cc1	36.1 µM
COc1ccc(C2=C(Cl)c3cc(OC)c(OC)cc3C2OC)cc1OC (centres undefined)	> 100 µM
Cn1c(=O)[nH]c2nncnc2c1=O	146 µM
COC(=O)C(Cc1cc(OC)c(OC)c(OC)c1)C(=O)OC	> 320 µM

Query compound follows.
(Q) Entry COC(=O)CC(NC(=O)OCc1ccccc1)C(C(C)=O)C(=O)OCc1ccccc1 (centres undefined) : reported TGI = ?
(A) > 31.6 µM

====

test system: SK-MEL-28 melanoma; test: NCI tumour cell line growth inhibition, 48 h
measurementType: TGI

Here is how some molecules turned out for TGI.
molecule	TGI
O=C1C2Nc3ccccc3SC2C(=O)N1c1ccc(Br)cc1 (centres undefined)	> 100 µM
CCOc1cc(C2SCC(=O)N2c2ccc(Oc3ccc(Cl)cc3)c(Cl)c2)ccc1O (centres undefined)	38.2 µM
Cn1cc(C(=O)c2ccccc2)c2ccccc2c1=O	> 100 µM
COc1cc(/C=C\c2cc(OC)c(OC)c(OC)c2)cc(N/C=C\C(=O)c2ccc(OC(F)(F)F)cc2)c1OC	> 100 µM
COc1c(CC=C(C)C)c(O)c(C(CC(C)C)c2c(O)c3c(c(C(C)=O)c2O)OC(C(C)(C)O)C3)c(O)c1C(C)=O (centres undefined)	> 12.5 µM
O=C(NC1(c2cc3ccccc3s2)CCCCC1)C1CCC1	> 100 µM
O=C1C[C@H](c2ccccc2)O[C@@H](c2ccccc2)C1	> 100 µM
NC1=CN(CCCO)C2=N/C(=C\c3ccccc3)C(=O)N12	> 100 µM

Consider now this further molecule.
(Q) What does the data say about its TGI? Entry: Cc1nc([P+](c2ccccc2)(c2ccccc2)c2ccccc2)c(Sc2sc(-c3ccccc3)nc2[P+](c2ccccc2)(c2ccccc2)c2ccccc2)o1
(A) 10.5 µM
